Recorded ΔTm at 10 µM, one value per entry.
Target: ZmDRIK1-K217-P492 (Zea mays)
Construct: kinase domain, K217-P492
Assay: biochemical
Conditions: read-out: dTm B, sheet ZmDRIK1-K217-P492;; DSF, Boltzmann fit, 0.1% DMSO
Report the figure in °C without appending any unit label.

[
  {
    "compound": "O=C1NCCc2[nH]c(-c3ccncc3)cc21 [PHA-767491]",
    "experimental_system": "ZmDRIK1-K217-P492 (Zea mays)",
    "readout_label": "ΔTm at 10 µM",
    "reading_unit": "°C",
    "result_number": -0.984
  },
  {
    "compound": "C[C@H](Nc1ncnc2nc[nH]c12)c1cc2cccc(Cl)c2c(=O)n1-c1ccccc1 [IPI-145 (INK1197)]",
    "experimental_system": "ZmDRIK1-K217-P492 (Zea mays)",
    "readout_label": "ΔTm at 10 µM",
    "reading_unit": "°C",
    "result_number": -0.86
  },
  {
    "compound": "CO[C@H]1C[C@@H]2CC[C@@H](C)[C@@](O)(O2)C(=O)C(=O)N2CCCC[C@H]2C(=O)O[C@H]([C@H](C)C[C@@H]2CC[C@H](n3cnnn3)[C@H](OC)C2)CC(=O)[C@H](C)/C=C(\\C)[C@@H](O)[C@@H](OC)C(=O)[C@H](C)C[C@H](C)/C=C/C=C/C=C/1C [Zotarolimus(ABT-578)]",
    "experimental_system": "ZmDRIK1-K217-P492 (Zea mays)",
    "readout_label": "ΔTm at 10 µM",
    "reading_unit": "°C",
    "result_number": -0.534
  }
]

Value of ΔTm at 10 µM reported for the compound CCCNC(=O)Nc1ccc(Oc2ncnc3cc(OC)c(OC)cc23)cc1Cl [KRN 633] is -0.52

Value of ΔTm at 10 µM reported for the compound Cc1csc(-c2nnc(Nc3ccc(Oc4ncccc4-c4ccnc(N)n4)cc3)c3ccccc23)c1 [AMG-900] is -3.86

Value of ΔTm at 10 µM reported for the compound CN1CCN(c2nc(C3=C(c4c[nH]c5ccccc45)C(=O)NC3=O)c3ccccc3n2)CC1 [Sotrastaurin] is -0.642

Value of ΔTm at 10 µM reported for the compound Cn1cc(-c2ccc3ncc(Cc4ccc5ncccc5c4)n3n2)cn1 [NVP-BVU972] is -0.593

Value of ΔTm at 10 µM reported for the compound Nc1ncnc2c1c(-c1cnc3[nH]ccc3c1)nn2C1CCCC1 [PP121] is -1.06

Value of ΔTm at 10 µM reported for the compound Cc1nc(NC(=O)N2CCC[C@H]2C(N)=O)sc1-c1ccnc(C(C)(C)C(F)(F)F)c1 [BYL719] is -0.718

----------
Recorded ΔTm at 10 µM, one value per entry.
Molecular target: ZmDRIK1-K217-P492 (Zea mays, UniProt C0P4K9)
Construct: kinase domain, K217-P492
Sequence (C0P4K9 1-514): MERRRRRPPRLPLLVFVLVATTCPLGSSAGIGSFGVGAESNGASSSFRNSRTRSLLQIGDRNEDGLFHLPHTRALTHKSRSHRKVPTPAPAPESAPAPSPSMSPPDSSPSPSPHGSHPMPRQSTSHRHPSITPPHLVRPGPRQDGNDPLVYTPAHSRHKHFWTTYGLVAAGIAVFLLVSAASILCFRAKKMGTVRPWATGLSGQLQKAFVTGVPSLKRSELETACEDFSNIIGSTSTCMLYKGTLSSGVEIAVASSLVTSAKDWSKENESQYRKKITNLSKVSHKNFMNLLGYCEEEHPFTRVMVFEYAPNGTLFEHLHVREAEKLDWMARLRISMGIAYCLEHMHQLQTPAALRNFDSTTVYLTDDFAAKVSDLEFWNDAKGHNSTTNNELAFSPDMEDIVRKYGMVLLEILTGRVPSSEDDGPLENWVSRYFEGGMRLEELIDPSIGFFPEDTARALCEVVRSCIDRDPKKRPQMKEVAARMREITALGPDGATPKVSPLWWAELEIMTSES
Assay: biochemical
Details: read-out: dTm B, sheet ZmDRIK1-K217-P492;; DSF, Boltzmann fit, 0.1% DMSO
Report the figure in °C without appending any unit label.

[
  {
    "molecule": "Cn1c(=O)c(F)c(Nc2ccc(I)cc2F)c2c(=O)n(C[C@@H](O)CO)cnc21 [TAK-733]",
    "reading_unit": "°C",
    "ΔTm at 10 µM": -1.32
  }
]

Value of ΔTm at 10 µM reported for the molecule Oc1cccc(-c2nc(N3CCOCC3)c3oc4ncccc4c3n2)c1 [PI-103] is -1.14

Value of ΔTm at 10 µM reported for the molecule O=C(c1ccc(/C=C/c2n[nH]c3ccccc23)cc1)N1CCNCC1 [KW-2449] is -0.672

Value of ΔTm at 10 µM reported for the molecule C[C@@H]1COC(Nc2ccc3ncnc(Nc4ccc(OCc5nccs5)c(Cl)c4)c3c2)=N1 [Varlitinib] is -0.993

Value of ΔTm at 10 µM reported for the molecule COc1ccc(F)c(F)c1C(=O)c1cnc(NC2CCN(S(C)(=O)=O)CC2)nc1N [R547] is -1.09
